- studySystem: T1, Foxp3 in murine CD25+ Treg cells (mouse, UniProt Q99JB6 1-417)
- T1 sequence (looked up): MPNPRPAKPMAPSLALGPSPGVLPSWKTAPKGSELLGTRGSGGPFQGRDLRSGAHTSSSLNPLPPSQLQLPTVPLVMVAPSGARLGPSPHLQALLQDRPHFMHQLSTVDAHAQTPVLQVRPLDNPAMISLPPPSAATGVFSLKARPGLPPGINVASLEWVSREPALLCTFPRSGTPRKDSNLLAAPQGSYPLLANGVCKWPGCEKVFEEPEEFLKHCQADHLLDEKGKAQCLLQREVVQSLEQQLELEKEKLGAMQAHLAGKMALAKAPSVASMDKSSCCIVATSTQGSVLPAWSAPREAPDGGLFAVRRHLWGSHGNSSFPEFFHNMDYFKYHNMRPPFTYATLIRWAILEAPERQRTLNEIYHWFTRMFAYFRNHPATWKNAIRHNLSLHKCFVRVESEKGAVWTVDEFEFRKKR
- assayName: cell-based or functional assay
metricName: Treg inhibition-% inhibition (100 µM) (%)

binder="RDFQSFRKMWPFFAM [p60 (peptide of SEQ ID NO: 1)]" metricname="Treg inhibition-% inhibition (100 µM)" valuereported=116
binder="RDFQAFRKMWPFFAM [peptide of SEQ ID NO: 19]" metricname="Treg inhibition-% inhibition (100 µM)" valuereported=160
binder="RAFQSFRKMWPFFAM [peptide of SEQ ID NO: 5]" metricname="Treg inhibition-% inhibition (100 µM)" valuereported=347
binder="RDFQSFRKMWAFFAM [peptide of SEQ ID NO: 30]" metricname="Treg inhibition-% inhibition (100 µM)" valuereported=170
